pKi: −log10 of the molar value.
Reported pKi against Adenosine receptor A2a (Rattus norvegicus, UniProt P30543), gathered from multiple publications, appears below.
Sequence (P30543 whole entry): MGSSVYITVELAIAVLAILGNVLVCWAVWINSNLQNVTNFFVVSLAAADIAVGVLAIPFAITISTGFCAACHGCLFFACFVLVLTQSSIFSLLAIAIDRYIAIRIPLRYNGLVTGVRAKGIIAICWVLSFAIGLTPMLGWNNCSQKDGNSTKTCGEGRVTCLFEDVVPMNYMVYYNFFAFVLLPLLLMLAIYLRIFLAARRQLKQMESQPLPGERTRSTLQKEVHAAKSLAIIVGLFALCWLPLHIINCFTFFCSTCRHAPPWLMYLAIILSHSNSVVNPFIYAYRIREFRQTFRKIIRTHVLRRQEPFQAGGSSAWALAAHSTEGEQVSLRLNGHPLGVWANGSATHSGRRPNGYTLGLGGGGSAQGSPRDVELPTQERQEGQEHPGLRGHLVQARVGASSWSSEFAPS
Readout Name: pKi

Nc1nc(NCCc2ccccc2)nc2c1ncn2C1CC(O)C(O)C1O (stereo not given)    5.74
COc1ccccc1/C=C/C=N/Nc1nc(N)c2ncn([C@@H]3O[C@H](CO)[C@@H](O)[C@H]3O)c2n1    6.42
Cn1cnc2c(N)ncnc21    5.07

a = COc1ccc(CC(=O)Nc2nc3ccc(Cl)cc3c3nc(-c4ccco4)nn23)cc1
b = OC[C@H]1O[C@@H](n2cnc3c(NC4CCC4)nc(Cl)nc32)[C@H](O)[C@@H]1O
c = C#CCn1c(Cc2ccc(F)cc2)nc2sc(C)c(C)c2c1=O
[in] Rank the 3 molecules: largest pKi first, smallest last. Order the labels as requested and list them.
[out] a, b, c

1 = Nc1nc(N2CCN(Cc3c(Cl)cccc3Cl)CC2)nc2nc(-c3ccco3)nn12
2 = Nc1nc(N2CCN(Cc3ccc(Cl)cc3)CC2)nc2nc(-c3ccco3)nn12
[in] Which entry shows the lesser value of pKi here, 1 or 2 ? API: response body contains the label of the selected item.
[out] 2
(2: 5.96, 1: 6.94)

1 = Nc1nc(-c2ccccc2)cc(-c2cccc(OC(=O)N3CCCCC3)c2)n1
2 = C#CCn1c(=O)c2[nH]cnc2n(C)c1=O
3 = CSC[C@H]1O[C@@H](n2cnc3c(N)nc(I)nc32)[C@H](O)[C@@H]1O
[in] // sort entries: pKi, high to low Please, when replying, give the labels in the order that was requested.
[out] 1, 3, 2

a = C[C@H]1CN=C2c3c(ncn3C)N(C)C(=O)N21
b = C[C@@H](Nc1nc(N)c2cnn(-c3ccccc3)c2n1)C(N)=O
[in] Which of the two items, a and b , has the greater recorded pKi? Select an item and report its label.
[out] b

---

Hi, quick share: literature Ki data for Adenosine receptor A2a (Rattus norvegicus, UniProt P30543), several sources combined.
Readout Name: Ki (nM)

Use the examples below as a reference point.
CC(C)(C)c1ccc(Cn2cc(-c3nc(N)c4ncn([C@@H]5O[C@H](CO)[C@@H](O)[C@H]5O)c4n3)cn2)cc1    5290
CCCn1c(=O)c2c(nc3n2CCCN3CCc2ccc(OCC(=O)NCCCn3ccnc3)cc2)n(CCC)c1=O    637
OC[C@H]1O[C@@H](n2cnc3c(NC4CC4)nc(Cl)nc32)[C@H](O)[C@@H]1O    2060

1 = COc1ccc(-c2nc(O)c3ccccc3n2)cc1OC
2 = CC(O)(C#Cc1cn2nc(-c3ccco3)nc2c(N)n1)c1cccc(C(F)(F)F)c1F (centres undefined)
[in] Lab notebook, comparison: 1 versus 2 , higher Ki goes to which? Kindly give the label for the entry you pick.
[out] 1

P = CCCNC[C@H]1O[C@@H](n2cnc3c(NC4CCCC4)ncnc32)[C@H](O)[C@@H]1O
Q = COc1cccc(CCC(=O)Nc2nc3ccccc3c(=O)s2)c1
R = CC[C@H]1CN2C(=O)N(C)c3[nH]c(/C=C/c4ccccc4)nc3C2=N1
[in] Your job: order these 3 records by Ki, ascending. The response must list the labels following the requested ordering.
[out] Q, R, P
(Q: 294 nM, R: 670 nM, P: 14500 nM)
